System: A2780 ovarian carcinoma cells
Experiment: Antiproliferative activity on A2780 cells (MTT)
Assay type: cell-based, human
Settings: Homo sapiens, A2780, 96 h, four days of incubation, read-out: Cellular activity pIC50 C.2. (converted)
Description: All compounds tested were dissolved in DMSO and further dilutions were made in culture medium. Final DMSO concentrations never exceeded 0.1% (v/v) in cell proliferation assays. […] Cells were seeded in NUNC™ 96-well culture plates (Supplier: Life Technologies) and allowed to adhere to the plastic overnight. […] Following four days of incubation, medium was replaced by 200 μl fresh medium and cell density and viability was assessed using an MTT-based assay. […]
quantity: IC50

Example results:
| molecule | IC50 |
| --- | --- |
| O=C(NO)c1cnc(N2CCN(C(CO)c3cccc4ccccc34)CC2)nc1 (stereo not shown) [Compound 1] | 100 nM |
| CCN(CC1CCN(c2ncc(C(=O)NO)cn2)CC1)C(CO)c1cc2ccccc2o1 (stereo not shown) [Compound 4] | 251 nM |
| CC(C)(C)c1ccc([C@H]([C@H](O)CO)N2CCN(c3ncc(C(=O)NO)cn3)CC2)cc1 [Compound 6] | 39.8 nM |

Now consider a different molecule.
Request: Given the molecule O=C(NO)c1cnc(N2CCN(C(CO)c3csc4ccccc34)CC2)nc1 (stereo not shown) [Compound 9] , write its reported IC50.
Result: 50.1 nM
